Tested on: PDH phosphatase
Experimental Details: PDH phosphatase activation
Type: biochemical
Test Context: 100 μM

| Compound | U | PDH activation |
| --- | --- | --- |
| NC1C(OC2C(O)C(O)C(O)C(O)C2OP(=O)(O)O)OC(CO)C(O)C1O (stereo not shown) | % | 18 |
| NC1C(OC2C(O)C(O)C(O)C(O)C2O)OC(CO)C(O)C1OP(=O)(O)O (stereo not shown) | % | 361 |
| N[C@H]1[C@@H](O[C@H]2[C@H](O)[C@H](O)[C@H](O)[C@@H](O)[C@@H]2O)O[C@H](COP(=O)(O)O)[C@@H](O)[C@@H]1O | % | 14 |
| NC1C(OC2C(O)C(O)C(O)C(O)C2O)OC(CO)C(OP(=O)(O)O)C1O (stereo not shown) | % | 132 |
